Provide the recorded inhibition at 10 µM for the entries that follow.
biological target: CYP1A2 (Homo sapiens, UniProt P05177); assay: Inhibition of CYP1A2 (unknown origin) assessed as reduction in phenaceten demethylation to acetaminophen at 10 uM; type: ADME
Sequence (P05177 whole entry): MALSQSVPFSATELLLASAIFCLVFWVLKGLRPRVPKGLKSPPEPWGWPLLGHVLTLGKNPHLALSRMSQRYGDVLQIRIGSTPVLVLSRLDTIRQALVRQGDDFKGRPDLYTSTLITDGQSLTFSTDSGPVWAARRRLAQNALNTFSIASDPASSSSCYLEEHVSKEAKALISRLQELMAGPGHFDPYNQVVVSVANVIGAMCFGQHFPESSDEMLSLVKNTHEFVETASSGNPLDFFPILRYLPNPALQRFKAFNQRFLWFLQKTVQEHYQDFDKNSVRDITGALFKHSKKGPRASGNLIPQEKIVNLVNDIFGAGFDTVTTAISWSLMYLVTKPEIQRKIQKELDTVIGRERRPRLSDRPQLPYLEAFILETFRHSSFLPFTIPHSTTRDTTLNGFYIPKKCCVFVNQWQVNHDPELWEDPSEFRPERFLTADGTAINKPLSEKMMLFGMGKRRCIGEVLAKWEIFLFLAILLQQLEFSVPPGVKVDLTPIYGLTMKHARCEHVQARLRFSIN
One number for each entry, in %.

Some molecules with recorded inhibition at 10 µM:
Cc1ccc(N(CCO)C(=O)Nc2ccc(-c3ncnc4[nH]cc(C)c34)cc2)cc1	-5
Cc1[nH]c2ncnc(-c3ccc(NC(=O)N(CCO)c4ccc(Cl)cc4)c(F)c3)c2c1C	40
COc1ccc(N(CCO)C(=O)Nc2ccc(-c3ncnc4[nH]cc(C)c34)cc2)cc1	-8
Cc1c[nH]c2ncnc(-c3ccc(NC(=O)N(CCO)c4ccccc4Cl)cc3)c12	-4
Cc1c[nH]c2ncnc(-c3ccc(NC(=O)N(CCO)c4ccc(F)cc4)cc3)c12	-4

Need inhibition at 10 µM for each of these molecules.
1. Cc1c[nH]c2ncnc(-c3ccc(NC(=O)N(CCO)c4ccccc4)cc3)c12
2. Cc1c[nH]c2ncnc(-c3ccc(NC(=O)N(CCO)c4ccc(Cl)cc4)cc3)c12
3. Cc1c[nH]c2ncnc(-c3ccc(NC(=O)N(CCO)c4cccc(Cl)c4)cc3)c12
4. COc1cccc(N(CCO)C(=O)Nc2ccc(-c3ncnc4[nH]cc(C)c34)cc2)c1

Out:
[-16, -12, -19, 3]

---

Provide the recorded IC50 for the entries that follow.
molecular target: LIM domain kinase 1 (Homo sapiens, UniProt P53667)
Sequence (P53667 whole entry, the tested form may be a part): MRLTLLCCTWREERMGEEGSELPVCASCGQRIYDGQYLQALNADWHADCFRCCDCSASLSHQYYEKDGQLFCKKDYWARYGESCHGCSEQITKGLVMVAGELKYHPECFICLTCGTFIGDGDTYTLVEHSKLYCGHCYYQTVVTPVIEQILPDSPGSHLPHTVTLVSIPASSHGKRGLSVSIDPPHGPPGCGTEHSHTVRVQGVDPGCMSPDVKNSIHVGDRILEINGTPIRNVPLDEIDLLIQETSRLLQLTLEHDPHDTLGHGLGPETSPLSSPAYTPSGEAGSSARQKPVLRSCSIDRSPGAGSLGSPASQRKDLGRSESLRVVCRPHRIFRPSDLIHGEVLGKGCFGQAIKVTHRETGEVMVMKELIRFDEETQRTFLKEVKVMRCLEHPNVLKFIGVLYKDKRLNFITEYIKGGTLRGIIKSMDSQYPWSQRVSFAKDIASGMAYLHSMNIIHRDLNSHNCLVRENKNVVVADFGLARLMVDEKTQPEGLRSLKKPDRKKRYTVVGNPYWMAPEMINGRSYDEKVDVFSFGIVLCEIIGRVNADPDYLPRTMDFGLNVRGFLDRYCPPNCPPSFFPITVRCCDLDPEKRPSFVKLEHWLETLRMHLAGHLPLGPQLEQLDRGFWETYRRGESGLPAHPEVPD
One number for each entry, in µM.

COc1ccc(NC(=O)N(CCN2CCCC2)c2ccc(-c3ncnc4[nH]cc(C)c34)cc2)cc1	9.24

In: Value lookup for IC50; key = CC(C)NC(=O)c1cccc(NC(=O)Nc2ccc(-c3ncnc4[nH]cnc34)cc2)c1
Out: 1.53

---

test system: Liver microsome; test: Half life in rat liver microsomes; assay type: ADME
experimentalReadout: t1/2 (min)
Numbers only, in min.

Some compounds with recorded t1/2:
Cc1c[nH]c2ncnc(-c3ccc(NC(=O)N(CCO)c4ccc(Cl)cc4)cc3)c12	73
Cc1ccc(N(CCO)C(=O)Nc2ccc(-c3ncnc4[nH]cc(C)c34)cc2)cc1	39
Cc1c[nH]c2ncnc(-c3ccc(NC(=O)N(CCO)c4ccccc4Cl)cc3)c12	38
Cc1c[nH]c2ncnc(-c3ccc(NC(=O)N(CCO)c4ccccc4)cc3)c12	30
COc1ccc(N(CCO)C(=O)Nc2ccc(-c3ncnc4[nH]cc(C)c34)cc2)cc1	40
Cc1[nH]c2ncnc(-c3ccc(NC(=O)N(CCO)c4ccc(Cl)cc4)c(F)c3)c2c1C	44
COCCN(C(=O)Nc1ccc(-c2ncnc3[nH]c(C)c(C)c23)cc1F)c1ccc(Cl)cc1	13
Cc1c[nH]c2ncnc(-c3ccc(NC(=O)Nc4cccc(C(=O)NC(C)C)c4)c(F)c3)c12	55

Need t1/2 for each of these compounds.
1. Cc1c[nH]c2ncnc(-c3ccc(NC(=O)N(CCO)c4ccc(F)cc4)cc3)c12
2. COc1cccc(N(CCO)C(=O)Nc2ccc(-c3ncnc4[nH]cc(C)c34)cc2)c1
3. Cc1c[nH]c2ncnc(-c3ccc(NC(=O)N(CCO)c4cccc(Cl)c4)cc3)c12
4. Cc1[nH]c2ncnc(-c3ccc(NC(=O)N(CCN(C)C)c4ccc(Cl)cc4)c(F)c3)c2c1C

Out:
1: 52; 2: 21; 3: 20; 4: 23
